Target: FFAR (R10; GPR40) (Homo sapiens)
Construct: expressed in transfected cells; host or cells: HFF11 reporter cells (HeLa-based), line HFF11.pR10
Sequence (O14842 whole entry): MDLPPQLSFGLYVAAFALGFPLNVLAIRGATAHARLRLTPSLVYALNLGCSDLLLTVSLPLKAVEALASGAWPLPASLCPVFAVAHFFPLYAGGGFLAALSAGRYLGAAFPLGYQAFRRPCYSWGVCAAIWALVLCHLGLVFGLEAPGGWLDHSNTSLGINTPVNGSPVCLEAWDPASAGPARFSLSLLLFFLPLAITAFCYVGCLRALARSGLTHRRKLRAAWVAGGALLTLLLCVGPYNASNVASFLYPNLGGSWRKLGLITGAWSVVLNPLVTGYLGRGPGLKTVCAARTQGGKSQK
Assay: HFF11 reporter cell assay, HFF11.pR10 cells expressing FFAR
Format: cell-based
Conditions: FFAR response to free fatty acids, HFF11.pR10 reporter cell line; read-out: Mean EC50
Give EC50 for every item shown.
Give bare numbers, in µM.

The cases that follow already have their EC50 on record.
**Q:** If you can, please state the reported EC50 value of CCCCCCC(O)C/C=C/CCCCCCCC(=O)O (stereo not drawn) [Ricinelaidic acid, 12-hydroxy, trans 9-octadecanoic acid] .
**A:** 20

**Q:** If you can, please state the reported EC50 value of CCCCC/C=C\C/C=C\C/C=C\CCCCC(=O)O [γ-Linoleic acid, cis-6, cis-9, cis-12-octadecanoic acid] .
**A:** 28.5

**Q:** If you can, please state the reported EC50 value of CCCC/C=C/CCCCCCCC(=O)O [Myristelaidic acid, trans-9-tetradecenoic acid] .
**A:** 25

Further cases:
**Q:** If you can, please state the reported EC50 value of CCCCC/C=C\C/C=C\CCCCCCCC(=O)O [Linoleic acid, cis-9, cis-12,-octadecanoic acid] .
**A:** 38.4
